Would you kindly list kinase still bound, per cent of control for each of these compounds?
Biological target: MAP3K10 (human) (UniProt Q02779)
Sequence (Q02779 whole entry, looked up): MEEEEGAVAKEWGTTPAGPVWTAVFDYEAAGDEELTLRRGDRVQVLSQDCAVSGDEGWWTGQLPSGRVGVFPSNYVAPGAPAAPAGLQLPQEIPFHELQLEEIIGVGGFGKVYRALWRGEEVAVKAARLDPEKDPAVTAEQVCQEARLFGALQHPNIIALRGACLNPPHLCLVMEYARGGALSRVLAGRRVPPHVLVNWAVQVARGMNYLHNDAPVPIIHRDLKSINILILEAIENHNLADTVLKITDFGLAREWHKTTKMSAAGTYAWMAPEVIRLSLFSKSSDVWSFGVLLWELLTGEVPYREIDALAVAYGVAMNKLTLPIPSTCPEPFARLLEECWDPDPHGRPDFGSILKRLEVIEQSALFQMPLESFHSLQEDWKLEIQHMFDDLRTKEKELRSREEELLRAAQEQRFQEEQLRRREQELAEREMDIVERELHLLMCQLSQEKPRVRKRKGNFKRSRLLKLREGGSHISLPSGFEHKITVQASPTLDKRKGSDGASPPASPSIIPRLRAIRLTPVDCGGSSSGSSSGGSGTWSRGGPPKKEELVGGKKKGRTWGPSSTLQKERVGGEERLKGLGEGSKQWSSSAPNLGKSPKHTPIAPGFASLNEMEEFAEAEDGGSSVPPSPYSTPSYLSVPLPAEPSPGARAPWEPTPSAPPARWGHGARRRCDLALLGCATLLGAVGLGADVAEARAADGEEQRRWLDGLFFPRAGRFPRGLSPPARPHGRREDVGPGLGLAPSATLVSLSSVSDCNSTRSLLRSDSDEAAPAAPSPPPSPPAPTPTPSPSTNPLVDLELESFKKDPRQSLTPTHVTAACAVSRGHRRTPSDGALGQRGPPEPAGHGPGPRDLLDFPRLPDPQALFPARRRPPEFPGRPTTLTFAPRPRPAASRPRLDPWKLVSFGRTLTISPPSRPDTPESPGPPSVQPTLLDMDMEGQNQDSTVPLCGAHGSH
Test: KINOMEscan competition binding
Settings: compound 10.0 µM
Give bare numbers, in %.

Below: 4 compounds and their reported kinase still bound, per cent of control.
O=C1NC(=O)/C(=C/c2c[nH]c(=O)c(-c3ccc(N4CCNCC4)nc3)c2)S1: 100
COc1cc(N2CCC(O)CC2)ccc1Nc1ncc2c(n1)N1CCc3cccc(c31)C(=O)N2C: 100
CN1CCN(c2ccc(C(=O)Nc3ncc4c(n3)N(C)c3ccccc3C(=O)N4C)cc2)CC1: 99
COc1cc(N2CCN(C)CC2)ccc1Nc1ncc2c(n1)N(C)c1ccccc1N(C)C2=O: 100

Turning now to a further compound:
Reported kinase still bound, per cent of control for MAP3K10 (human) (UniProt Q02779), given "CN1C(=O)c2ccccc2N(C)c2nc(NS(=O)(=O)c3ccc(N)cc3)ncc21" ?
100

###

Target: UniProt Q8IU85
Sequence (Q8IU85 whole entry, looked up): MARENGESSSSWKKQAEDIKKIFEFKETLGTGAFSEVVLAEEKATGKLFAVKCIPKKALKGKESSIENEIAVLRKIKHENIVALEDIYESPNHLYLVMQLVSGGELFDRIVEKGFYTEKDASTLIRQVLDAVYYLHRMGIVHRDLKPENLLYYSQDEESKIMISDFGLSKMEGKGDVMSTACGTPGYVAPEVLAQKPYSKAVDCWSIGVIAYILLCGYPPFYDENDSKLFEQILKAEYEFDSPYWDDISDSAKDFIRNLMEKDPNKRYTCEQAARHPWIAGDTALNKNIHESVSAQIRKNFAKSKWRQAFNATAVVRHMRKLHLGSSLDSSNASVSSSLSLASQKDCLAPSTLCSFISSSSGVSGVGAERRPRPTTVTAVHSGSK
Assay: KINOMEscan competition binding
Conditions: compound 10.0 µM
observable: kinase still bound, per cent of control (%)
Answers are plain numbers, in %.

N=C1NC(=O)/C(=C/c2ccc(-c3cncc4ccccc34)o2)S1: 9

Required: kinase still bound, per cent of control, one value per molecule below.
1. O=C1NC(=O)/C(=C/c2c[nH]c(=O)c(-c3ccc(N4CCNCC4)nc3)c2)S1
2. CN1C(=O)c2ccccc2N(C)c2nc(Nc3ccc(N4CCC(O)CC4)cc3)ncc21
3. COc1cc(C(=O)NC2CCN(C)CC2)ccc1Nc1ncc2c(n1)N(C1CCCC1)CCC(=O)N2C
4. CN1C(=O)c2ccccc2N(C)c2nc(NS(=O)(=O)c3ccc(N)cc3)ncc21
5. COc1cc(N2CCN(C)CC2)ccc1Nc1ncc2c(n1)N(C)c1ccccc1N(C)C2=O

48
98
29
100
99

For each listed entry, give its kinase still bound, per cent of control.
1. COc1cc(C(=O)NC2CCN(C)CC2)ccc1Nc1ncc2c(n1)N(C1CCCC1)C(C)CC(=O)N2C (stereo not drawn)
2. CN1CCN(c2ccc(C(=O)Nc3ncc4c(n3)N(C)c3ccccc3C(=O)N4C)cc2)CC1
3. Cc1cn(-c2cc(NC(=O)c3cccc4cc(-c5ccc(/C=C6\SC(=N)NC6=O)o5)ccc34)cc(C(F)(F)F)c2)cn1
4. O=C1NC(=S)S/C1=C\c1ccc(-c2cncc3ccccc23)o1
5. COc1cc(N2CCN(C)CC2)ccc1Nc1ncc2c(n1)Nc1ccccc1NC2=O

1. 17
2. 100
3. 29
4. 28
5. 100

Hi, could you look up kinase still bound, per cent of control for each item in my list?
1. COc1cc(N2CCN(C)CC2)ccc1Nc1ncc2c(n1)N(C)c1sccc1C(=O)N2C
2. COc1cc(N2CCC(O)CC2)ccc1Nc1ncc2c(n1)N1CCc3cccc(c31)C(=O)N2C

[71, 87]

###

Target: RPS6KA5 KD1 (human)
Test: KINOMEscan competition binding
Settings: compound 10.0 µM
observable: kinase still bound, per cent of control (%)
Numbers only, in %.

O=C1NC(=O)/C(=C/c2c[nH]c(=O)c(-c3ccc(N4CCNCC4)nc3)c2)S1: 100
CN1C(=O)c2ccccc2N(C)c2nc(NS(=O)(=O)c3ccc(N)cc3)ncc21: 99
CN1CCN(c2ccc(C(=O)Nc3ncc4c(n3)N(C)c3ccccc3C(=O)N4C)cc2)CC1: 87
CN1C(=O)c2ccccc2N(C)c2nc(Nc3ccc(N4CCC(O)CC4)cc3)ncc21: 100
COc1cc(N2CCN(C)CC2)ccc1Nc1ncc2c(n1)N(C)c1sccc1C(=O)N2C: 86
COc1cc(N2CCN(C)CC2)ccc1Nc1ncc2c(n1)Nc1ccccc1NC2=O: 90

Count: 2. Required value per item: kinase still bound, per cent of control.
1. COc1cc(N2CCN(C)CC2)ccc1Nc1ncc2c(n1)N(C)c1ccccc1N(C)C2=O
2. COc1cc(N2CCC(O)CC2)ccc1Nc1ncc2c(n1)N1CCc3cccc(c31)C(=O)N2C

1. 100
2. 59

###

Task for the reader: assign each of the following molecules its reported kinase still bound, per cent of control.
Molecular target: SIK2 (human) (UniProt Q9H0K1)
Sequence (Q9H0K1 whole entry, looked up): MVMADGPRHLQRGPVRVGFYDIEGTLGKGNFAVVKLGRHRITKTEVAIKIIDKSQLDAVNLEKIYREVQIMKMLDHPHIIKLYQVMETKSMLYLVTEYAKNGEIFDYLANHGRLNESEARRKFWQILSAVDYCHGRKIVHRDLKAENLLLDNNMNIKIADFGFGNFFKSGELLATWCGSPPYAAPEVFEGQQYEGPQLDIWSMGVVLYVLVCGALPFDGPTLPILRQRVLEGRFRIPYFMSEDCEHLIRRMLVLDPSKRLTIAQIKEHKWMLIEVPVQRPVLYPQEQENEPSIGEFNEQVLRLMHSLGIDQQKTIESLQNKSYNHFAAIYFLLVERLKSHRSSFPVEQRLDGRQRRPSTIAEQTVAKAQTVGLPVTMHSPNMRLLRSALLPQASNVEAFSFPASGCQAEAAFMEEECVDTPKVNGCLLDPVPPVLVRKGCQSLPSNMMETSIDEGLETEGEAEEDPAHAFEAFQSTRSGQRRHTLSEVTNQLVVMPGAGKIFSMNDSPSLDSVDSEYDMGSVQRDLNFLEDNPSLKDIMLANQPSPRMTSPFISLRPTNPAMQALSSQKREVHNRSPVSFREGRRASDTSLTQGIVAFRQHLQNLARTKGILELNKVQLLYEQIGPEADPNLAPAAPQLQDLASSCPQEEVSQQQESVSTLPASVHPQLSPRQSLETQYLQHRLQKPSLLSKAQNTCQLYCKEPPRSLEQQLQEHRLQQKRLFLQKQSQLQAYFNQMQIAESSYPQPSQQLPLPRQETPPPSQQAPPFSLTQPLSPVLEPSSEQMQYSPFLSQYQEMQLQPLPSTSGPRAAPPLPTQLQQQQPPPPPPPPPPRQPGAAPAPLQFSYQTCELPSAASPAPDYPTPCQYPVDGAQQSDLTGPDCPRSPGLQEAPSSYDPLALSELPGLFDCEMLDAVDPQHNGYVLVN
Assay: KINOMEscan competition binding
Details: compound 10.0 µM
Give bare numbers, in %.

Consider the following illustrative entries.
COc1cc(N2CCN(C)CC2)ccc1Nc1ncc2c(n1)N(C)c1ccccc1N(C)C2=O: 89
O=C1NC(=O)/C(=C/c2c[nH]c(=O)c(-c3ccc(N4CCNCC4)nc3)c2)S1: 76
CN1C(=O)c2ccccc2N(C)c2nc(Nc3ccc(N4CCC(O)CC4)cc3)ncc21: 61

Report kinase still bound, per cent of control for each item below.
1. COc1cc(N2CCN(C)CC2)ccc1Nc1ncc2c(n1)N1CCC[C@H]1CC(=O)N2
2. N=C1NC(=O)/C(=C/c2ccc(-c3cncc4ccccc34)o2)S1

1. 18
2. 27

Dear reader, for each entry below, please note its kinase still bound, per cent of control.
1. CN1CCN(c2ccc(C(=O)Nc3ncc4c(n3)N(C)c3ccccc3C(=O)N4C)cc2)CC1
2. COc1cc(N2CCC(O)CC2)ccc1Nc1ncc2c(n1)N1CCc3cccc(c31)C(=O)N2C

[78, 100]

Look up kinase still bound, per cent of control for the entries below, preserving their order.
1. COc1cc(N2CCN(C)CC2)ccc1Nc1ncc2c(n1)Nc1ccccc1NC2=O
2. COc1cc(N2CCN(C)CC2)ccc1Nc1ncc2c(n1)N(C)c1sccc1C(=O)N2C

[82, 87]

###

Could you please report measured kinase still bound, per cent of control for the items listed next?
Molecular target: UniProt Q9BVS4
Sequence (Q9BVS4 whole entry, looked up): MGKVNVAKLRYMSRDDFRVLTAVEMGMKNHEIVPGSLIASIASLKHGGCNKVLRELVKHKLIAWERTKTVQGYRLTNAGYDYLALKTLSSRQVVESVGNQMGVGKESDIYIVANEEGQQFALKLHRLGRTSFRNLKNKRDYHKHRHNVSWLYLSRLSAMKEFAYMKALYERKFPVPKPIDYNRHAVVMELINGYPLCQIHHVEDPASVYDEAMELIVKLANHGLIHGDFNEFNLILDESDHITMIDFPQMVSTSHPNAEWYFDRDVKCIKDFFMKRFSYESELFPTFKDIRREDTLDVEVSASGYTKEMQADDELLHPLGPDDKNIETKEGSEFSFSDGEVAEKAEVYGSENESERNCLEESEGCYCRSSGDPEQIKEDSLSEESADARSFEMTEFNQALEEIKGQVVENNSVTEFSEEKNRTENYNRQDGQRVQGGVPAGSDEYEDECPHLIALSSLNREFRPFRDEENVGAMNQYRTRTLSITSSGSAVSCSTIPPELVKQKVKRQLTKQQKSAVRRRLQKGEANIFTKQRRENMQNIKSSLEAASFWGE
Test: KINOMEscan competition binding
Settings: compound 10.0 µM

COc1cc(N2CCN(C)CC2)ccc1Nc1ncc2c(n1)N1CCC[C@H]1CC(=O)N2C: 0.2%

// each compound listed below needs its kinase still bound, per cent of control
1. CN1C(=O)[C@H]2CCC[C@H]2N(C2CCCC2)c2nc(Nc3ccc(C(N)=O)cc3)ncc21
2. COc1cc(N2CCC(O)CC2)ccc1Nc1ncc2c(n1)N1CCc3cccc(c31)C(=O)N2C
3. CN1C(=O)c2ccccc2N(C)c2nc(Nc3ccc(N4CCC(O)CC4)cc3)ncc21
4. CN1C(=O)[C@H]2CCC[C@H]2N(C2CCCC2)c2nc(Nc3ccc4ncccc4c3)ncc21

1: 6%; 2: 100%; 3: 63%; 4: 0.35%

###

Target: TAOK3 (human) (UniProt Q9H2K8)
Sequence (Q9H2K8 whole entry, looked up): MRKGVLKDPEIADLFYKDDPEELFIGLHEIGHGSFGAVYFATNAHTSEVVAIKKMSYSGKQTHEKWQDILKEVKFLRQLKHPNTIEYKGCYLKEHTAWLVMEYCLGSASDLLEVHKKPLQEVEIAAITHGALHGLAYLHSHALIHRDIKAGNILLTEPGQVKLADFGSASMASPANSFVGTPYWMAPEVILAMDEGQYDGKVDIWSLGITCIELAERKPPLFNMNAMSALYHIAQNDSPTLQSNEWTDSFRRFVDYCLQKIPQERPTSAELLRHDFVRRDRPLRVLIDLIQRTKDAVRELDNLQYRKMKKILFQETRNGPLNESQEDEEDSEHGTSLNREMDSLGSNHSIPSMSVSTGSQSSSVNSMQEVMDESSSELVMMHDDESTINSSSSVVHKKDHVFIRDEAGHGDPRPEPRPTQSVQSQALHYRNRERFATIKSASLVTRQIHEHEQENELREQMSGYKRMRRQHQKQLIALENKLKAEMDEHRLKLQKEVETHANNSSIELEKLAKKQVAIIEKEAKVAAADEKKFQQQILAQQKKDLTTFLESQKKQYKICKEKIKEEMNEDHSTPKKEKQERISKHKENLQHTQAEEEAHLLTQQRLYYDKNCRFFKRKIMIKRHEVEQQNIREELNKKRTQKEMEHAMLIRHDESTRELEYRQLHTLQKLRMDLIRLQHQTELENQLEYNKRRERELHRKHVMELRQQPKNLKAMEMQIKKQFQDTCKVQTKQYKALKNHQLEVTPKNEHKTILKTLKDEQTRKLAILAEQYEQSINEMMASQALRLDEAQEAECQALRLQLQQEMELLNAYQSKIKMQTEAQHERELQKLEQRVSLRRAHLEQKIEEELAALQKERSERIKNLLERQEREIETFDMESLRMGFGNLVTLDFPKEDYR
Assay: KINOMEscan competition binding
Settings: compound 10.0 µM
Provide the reported kinase still bound, per cent of control of each item.
One number for each entry, in %.

Solved cases (4 shown):
O=C1NC(=O)/C(=C/c2c[nH]c(=O)c(-c3ccc(N4CCNCC4)nc3)c2)S1: 8.6
N=C1NC(=O)/C(=C/c2c[nH]c(=O)c(-c3ccc(S(N)(=O)=O)cc3)c2)S1: 22
CN1C(=O)[C@H]2CCC[C@H]2N(C2CCCC2)c2nc(Nc3ccc(C(N)=O)cc3)ncc21: 10
N=C1NC(=O)/C(=C/c2ccc(-c3ccc(S(N)(=O)=O)cc3)o2)S1: 29

Now look at this entry.
Find the recorded kinase still bound, per cent of control belonging to "COc1cc(N2CCC(O)CC2)ccc1Nc1ncc2c(n1)N1CCc3cccc(c31)C(=O)N2C" and report it.
70

###

Molecular target: STK10 (human) (UniProt O94804)
Sequence (O94804 whole entry, looked up): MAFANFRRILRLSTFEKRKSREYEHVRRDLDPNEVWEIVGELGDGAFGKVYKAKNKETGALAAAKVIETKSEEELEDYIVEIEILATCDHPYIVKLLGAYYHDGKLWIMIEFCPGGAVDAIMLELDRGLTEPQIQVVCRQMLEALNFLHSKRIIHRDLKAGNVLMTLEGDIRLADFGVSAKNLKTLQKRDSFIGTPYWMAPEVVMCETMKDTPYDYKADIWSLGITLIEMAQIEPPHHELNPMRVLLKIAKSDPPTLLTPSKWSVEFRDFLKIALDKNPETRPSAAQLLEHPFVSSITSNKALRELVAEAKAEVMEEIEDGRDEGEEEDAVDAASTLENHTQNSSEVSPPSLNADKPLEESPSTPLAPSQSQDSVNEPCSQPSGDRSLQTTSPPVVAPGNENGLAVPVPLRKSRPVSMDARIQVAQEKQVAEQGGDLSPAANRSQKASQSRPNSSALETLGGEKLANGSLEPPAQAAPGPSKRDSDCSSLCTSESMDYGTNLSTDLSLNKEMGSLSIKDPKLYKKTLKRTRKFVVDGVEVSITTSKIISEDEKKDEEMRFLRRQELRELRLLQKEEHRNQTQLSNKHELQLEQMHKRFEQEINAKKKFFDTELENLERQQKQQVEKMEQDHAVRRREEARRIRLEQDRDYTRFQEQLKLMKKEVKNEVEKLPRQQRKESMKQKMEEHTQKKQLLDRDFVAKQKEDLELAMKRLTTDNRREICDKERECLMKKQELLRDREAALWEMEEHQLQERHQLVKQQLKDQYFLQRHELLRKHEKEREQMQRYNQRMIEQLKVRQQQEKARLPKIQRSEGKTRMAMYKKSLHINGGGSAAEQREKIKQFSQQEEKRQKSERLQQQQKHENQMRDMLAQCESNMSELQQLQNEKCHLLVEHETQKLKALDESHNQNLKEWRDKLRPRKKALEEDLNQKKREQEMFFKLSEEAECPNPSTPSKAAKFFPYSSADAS
Assay: KINOMEscan competition binding
Settings: compound 10.0 µM
Field: kinase still bound, per cent of control. Provide a value for each of the molecules that follow.
Answers are plain numbers, in %.

CN1CCN(c2ccc(C(=O)Nc3ncc4c(n3)N(C)c3ccccc3C(=O)N4C)cc2)CC1: 100
COc1cc(N2CCN(C)CC2)ccc1Nc1ncc2c(n1)Nc1ccccc1NC2=O: 100
O=C1NC(=O)/C(=C/c2c[nH]c(=O)c(-c3ccc(N4CCNCC4)nc3)c2)S1: 33
COc1cc(N2CCN(C)CC2)ccc1Nc1ncc2c(n1)N(C)c1sccc1C(=O)N2C: 100
COc1cc(N2CCC(O)CC2)ccc1Nc1ncc2c(n1)N1CCc3cccc(c31)C(=O)N2C: 100

Kindly review the next molecule as well.
Report kinase still bound, per cent of control for COc1cc(N2CCN(C)CC2)ccc1Nc1ncc2c(n1)N(C1CCCC1)C(C)CC(=O)N2 (stereo unspecified) please.
10

###

Target: STK4 (human)
Assay: KINOMEscan competition binding
Conditions: compound 10.0 µM
observable: kinase still bound, per cent of control
Phrase the answer as number then unit, nothing more needed.

Completed entries (count: 3):
CN1CCN(c2ccc(C(=O)Nc3ncc4c(n3)N(C)c3ccccc3C(=O)N4C)cc2)CC1: 93%
COc1cc(N2CCN(CCO)CC2)ccc1Nc1ncc2c(n1)N(C1CCCC1)CCC(=O)N2C: 0%
COc1cc(N2CCN(C)CC2)ccc1Nc1ncc2c(n1)N(C)c1sccc1C(=O)N2C: 100%

Please find the next compound below.
What does the data say about its kinase still bound, per cent of control? Entry: "COc1cc(N2CCC(O)CC2)ccc1Nc1ncc2c(n1)N1CCc3cccc(c31)C(=O)N2C"
78%

Data origin: the kinase profiling compilation of Christmann-Franck et al. (2016)
